Molecular target: C-C chemokine receptor type 5 (Homo sapiens)
Sequence (P51681 whole entry): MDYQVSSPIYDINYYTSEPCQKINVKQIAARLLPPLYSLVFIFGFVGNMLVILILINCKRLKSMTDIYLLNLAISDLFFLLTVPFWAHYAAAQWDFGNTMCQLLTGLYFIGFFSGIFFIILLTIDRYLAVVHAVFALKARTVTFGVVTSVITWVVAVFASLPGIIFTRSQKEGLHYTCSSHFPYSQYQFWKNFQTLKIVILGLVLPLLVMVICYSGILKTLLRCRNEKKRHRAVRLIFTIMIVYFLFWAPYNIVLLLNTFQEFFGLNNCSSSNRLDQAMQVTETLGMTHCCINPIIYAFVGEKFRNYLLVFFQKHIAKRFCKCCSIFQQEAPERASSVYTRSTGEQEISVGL
Assay: Displacement of [125I]-MIP-1 alpha from human C-C chemokine receptor type 5 expressed in CHO cells
Assay type: cell-based
pIC50: −log10 of the molar value.
Rule: pIC50 under 7 gives f, otherwise t.

Molecule | Category Label
CCN(C(=O)Cc1ccc(S(C)(=O)=O)cc1)C1CCN(CCC(c2ccc(F)cc2)c2ccc(F)cc2)CC1 | f

## Input Identify whether the reported pIC50 of the following molecule is 7 or greater: CCN(C(=O)Cc1ccc(S(C)(=O)=O)cc1)C1CCN(CCC(c2ccccc2)c2ccc(NS(=O)(=O)c3ccccc3)cc2)CC1 (stereo not given)
## Output f

## Input Identify whether the reported pIC50 of the following molecule is 7 or greater: CCN(C(=O)Cc1ccc(S(C)(=O)=O)cc1)C1CCN(CCC(c2ccccc2)c2ccc(NS(=O)(=O)Cc3ccccc3)cc2)CC1 (stereo not given)
## Output t

## Input Identify whether the reported pIC50 of the following molecule is 7 or greater: "CS(=O)(=O)c1ccc(CC(=O)N(C2CC2)C2CCN(CCC(c3ccccc3)c3ccccc3)CC2)cc1"
## Output t
